Every entry's value here was drawn from patent US9481676B2.

- target_desc: human recombinant adrenergic α2A receptor (Homo sapiens)
- Construct: expressed in transfected cells; host or cells: insect Sf9 cells
- Sequence (P08913 whole entry): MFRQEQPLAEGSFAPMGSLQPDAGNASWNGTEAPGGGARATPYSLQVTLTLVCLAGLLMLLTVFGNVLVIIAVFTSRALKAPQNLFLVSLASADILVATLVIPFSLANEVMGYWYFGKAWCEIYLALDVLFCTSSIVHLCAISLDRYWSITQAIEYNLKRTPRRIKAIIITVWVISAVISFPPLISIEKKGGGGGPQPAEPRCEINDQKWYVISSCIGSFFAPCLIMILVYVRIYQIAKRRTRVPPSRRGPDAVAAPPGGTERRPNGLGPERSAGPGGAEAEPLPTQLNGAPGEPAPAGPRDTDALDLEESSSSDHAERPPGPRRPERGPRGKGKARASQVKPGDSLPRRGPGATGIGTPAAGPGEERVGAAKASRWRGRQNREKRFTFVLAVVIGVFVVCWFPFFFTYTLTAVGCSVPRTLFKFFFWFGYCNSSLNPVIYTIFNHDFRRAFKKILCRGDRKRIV
- experiment: Adrenergic alpha2A radioligand binding ([3H]MK-912)
- condition_set: compound at 1 μM; read-out: Adrenergic (1 μM) α2A, percent inhibition of specific binding
Below, each entry is listed with its recorded inhibition at 1 µM.
Write the value in % as a bare number.

Use these answered entries as a reference point.
CN1CCc2c(n(CC(=O)OCc3ccccc3)c3ccc(Cl)cc23)CC1    7
Cc1ccc2c(c1)c1c(n2CC(=O)OC2CCCC2)CCN(C)CC1    12
Cc1ccc2c(c1)c1c(n2/C=C/c2ccccc2F)CCN(C)CC1    97

Query :: Bench note: what inhibition at 1 µM did CN1CCc2c(n(CC(O)c3cccnc3)c3ccc(Cl)cc23)CC1 (centres unmarked) show?
Result :: 92

Query :: Please answer likewise for CN1CCc2c(n(CC(=O)N3CCNCC3)c3ccc(Cl)cc23)CC1
Result :: -6

###

- target_desc: human recombinant serotonin (5-Hydroxytryptamine) 5-HT6 receptor (Homo sapiens)
- Construct: expressed in transfected cells; host or cells: human HeLa cells
- Sequence (P50406 whole entry): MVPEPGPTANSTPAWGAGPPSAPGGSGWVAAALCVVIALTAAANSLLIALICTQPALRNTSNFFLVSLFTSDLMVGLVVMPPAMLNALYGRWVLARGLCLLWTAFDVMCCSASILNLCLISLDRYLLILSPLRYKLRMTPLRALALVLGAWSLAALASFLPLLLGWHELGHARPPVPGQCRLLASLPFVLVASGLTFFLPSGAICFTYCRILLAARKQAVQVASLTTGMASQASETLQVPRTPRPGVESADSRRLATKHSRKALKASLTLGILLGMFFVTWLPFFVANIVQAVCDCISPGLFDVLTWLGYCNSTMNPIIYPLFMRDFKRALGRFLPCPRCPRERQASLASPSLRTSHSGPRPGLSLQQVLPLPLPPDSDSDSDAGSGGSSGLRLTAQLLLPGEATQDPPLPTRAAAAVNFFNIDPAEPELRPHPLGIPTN
- experiment: Serotonin 5-HT6 radioligand binding ([3H]LSD)
- condition_set: compound at 1 μM; read-out: Serotonin (1 μM) 5-HT6, percent inhibition of specific binding
Kind request: treat 70% as inclusive, so inhibition at 1 µM at 70% or higher is yes (1), anything lower is no (0).

Reference set (3 entries):
CC(C)NC(=O)Cn1c2c(c3cc(Cl)ccc31)CCN(C)CC2 [Compound No. 31]    no (0)
CN1CCc2c(n(CC(O)c3ccc(Cl)cc3)c3ccc(Cl)cc23)CC1 (centres unmarked) [Compound No. 16]    yes (1)
COc1ccc(C(O)Cn2c3c(c4cc(C)ccc42)CCN(C)CC3)cc1OC (centres unmarked) [Compound No. 227]    no (0)

Query :: Would you say C/C(=C/n1c2c(c3cc(C)ccc31)CCN(C)CC2)c1ccc(Cl)cc1Cl [Compound No. 174] shows inhibition at 1 µM at minimum 70%?
Result :: yes (1)

Query :: Now this one: C/C(=C\n1c2c(c3cc(Cl)ccc31)CCN(C)CC2)c1ccc(Cl)cc1Cl [Compound No. 239]
Result :: no (0)

Query :: Input CN1CCc2c(n(CCc3ccccc3)c3ccc(Cl)cc23)CC1 [Compound No. 56]
Result :: yes (1)

Query :: Cool, now CN1CCc2c(n(CC(=O)N3CCCCC3)c3ccc(Cl)cc23)CC1 [Compound No. 57]
Result :: no (0)

Query :: Lookup CN1CCc2c(n(CC(O)c3ccc(F)c(F)c3)c3ccc(Cl)cc23)CC1 (centres unmarked) [Compound No. 58]
Result :: yes (1)

Query :: How about this molecule: Cc1ccc2c(c1)c1c(n2CC(=O)N2CCOCC2)CCN(C)CC1 [Compound No. 38]
Result :: no (0)

Query :: Let us now turn to COc1ccc(C#Cn2c3c(c4cc(Cl)ccc42)CCN(C)CC3)cc1F [Compound No. 283]
Result :: no (0)

Query :: What would you report for Cc1ccc2c(c1)c1c(n2CC(C)(O)c2ccc(F)cc2)CCN(C)CC1 (centres unmarked) [Compound No. 14] ?
Result :: yes (1)

###

- target_desc: human recombinant serotonin (5-Hydroxytryptamine) 5-HT2C receptor (Homo sapiens, UniProt P28335)
- Construct: expressed in transfected cells; host or cells: CHO-K1 cells
- Sequence (P28335 33-458): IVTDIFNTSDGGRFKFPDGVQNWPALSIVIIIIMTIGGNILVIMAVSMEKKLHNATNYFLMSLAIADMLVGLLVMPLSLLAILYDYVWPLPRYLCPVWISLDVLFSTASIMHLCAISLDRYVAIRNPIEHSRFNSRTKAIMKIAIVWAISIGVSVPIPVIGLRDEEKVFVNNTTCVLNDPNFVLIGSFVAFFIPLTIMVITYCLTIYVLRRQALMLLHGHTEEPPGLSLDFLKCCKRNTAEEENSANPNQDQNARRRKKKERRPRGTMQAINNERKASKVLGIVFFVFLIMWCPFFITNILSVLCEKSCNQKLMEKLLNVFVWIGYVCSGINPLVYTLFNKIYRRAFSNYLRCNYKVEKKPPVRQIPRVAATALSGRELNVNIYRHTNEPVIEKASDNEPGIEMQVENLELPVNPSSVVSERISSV
- experiment: Serotonin 5-HT2C radioligand binding ([3H]Mesulergine)
- condition_set: compound at 1 μM; read-out: Serotonin (1 μM) 5-HT2C, percent inhibition of specific binding
- Procedure: To evaluate in radioligand binding assays the activity of compounds of the invention, human recombinant serotonin (5-Hydroxytryptamine) 5-HT2C receptor expressed in Chinese hamster ovary (CHO-K1) cells (Wolf, W. A. and Schutz, J. S., J. Neurochem. 69:1449, 1997) in a modified Tris-HCl buffer (50 mM Tris-HCl, pH 7.4, 0.1% Ascorbic Acid, 10 μM Pargyline) was used. […] Receptor proteins were filtered and washed, the filters were then counted to determine [^3H]Mesulergine specifically bound. […]
property: inhibition at 1 µM (%)
State the answer as a number, implicitly in %.

Reference set, count: 3
Cc1ccc(C(O)Cn2c3c(c4cc(Cl)ccc42)CCN(C)CC3)cc1 (centres unmarked)    93
COc1ccc(/C(C)=C/n2c3c(c4cc(Cl)ccc42)CCN(C)CC3)cc1    103
Cc1ccc2c(c1)c1c(n2CC(=O)N(C)C2CCCCC2)CCN(C)CC1    93

Query :: Requested field: inhibition at 1 µM. Item: Cc1ccc2c(c1)c1c(n2CC(C)(O)c2ccc(Cl)cc2)CCN(C)CC1 (centres unmarked)
Result :: 100

Query :: Same read-out for CN1CCc2c(n(CCc3ccccc3F)c3ccc(Cl)cc23)CC1 ?
Result :: 89

Query :: Same for C/C(=C/n1c2c(c3cc(Cl)ccc31)CCN(C)CC2)c1cccc(F)c1
Result :: 98

Query :: Now this one: CC1CCN(C(=O)Cn2c3c(c4cc(Cl)ccc42)CCN(C)CC3)CC1
Result :: 78

Query :: Another: Cc1ccc2c(c1)c1c(n2CC(=O)Nc2ccc(F)cc2)CCN(C)CC1
Result :: 41

Query :: Can you check CN1CCc2c(n(CC(=O)Nc3ccc(F)cc3)c3ccc(Cl)cc23)CC1 next?
Result :: 85
